FYI, the data here is from ChEMBL document CHEMBL5303304.

# System: HEK-293T
# PROTOCOL SUMMARY: Incucyte cell viability with HEK293T; note: unitless GR value; below 1 slowed growth and below 0 cell loss
# Assay type: toxicity, cell-based
# RECORDED CONDITIONS: human, 24 h, 10 µM, compound concentration 10 uM, replicate number 1
Class MET: Growth Rate at least 0.7. Class NOT MET: Growth Rate below 0.7.

Example entries and their recorded answers appear below.
COMPOUND	CATEGORY
CCOC(=O)N1CCC(CN(Cc2ccc(Cl)cc2)Cc2ccc([N+](=O)[O-])s2)C1 (stereo not drawn)	NOT MET
CC(C)Oc1ccc(F)c(-c2cnc(N)c(C(=O)Nc3cnccc3N3CCC[C@@H](C(=O)O)C3)n2)c1	NOT MET
CC(C)c1nc2c(c3c1[C@H](c1ccc(C(F)(F)F)cc1)OC31CCOCC1)[C@H](O)CC(C)(C)C2	NOT MET
Nc1ncnc2c1c(I)cn2[C@@H]1O[C@H](CO)[C@@H](O)[C@H]1O	NOT MET

Prompt: Given "CN1CCC(F)(Cn2cnc(-c3ccc(F)cn3)c2-c2ccnc3[nH]ccc23)CC1" , state whether its Growth Rate is at least 0.7.
Response: MET

Prompt: Given "COc1cc2ncnc(Nc3ccc(F)c(Cl)c3)c2cc1OCCN(C)C[C@H](C)O" , state whether its Growth Rate is at least 0.7.
Response: NOT MET

Prompt: Given CC[N+](CC)(CC)CCOc1ccc(/C=C/c2ccccc2)cc1.[I-] [STILONIUM IODIDE] , state whether its Growth Rate is at least 0.7.
Response: NOT MET

Prompt: Given "O=C(Nc1ccccc1Cl)c1cnc2ccc(C3CCNCC3)cn12.O=C(O)C(=O)O" , state whether its Growth Rate is at least 0.7.
Response: NOT MET

Prompt: Given "N[C@@H]1CCCN(c2c(/C=C3\SC(=O)NC3=O)cccc2-c2ccccc2)C1" , state whether its Growth Rate is at least 0.7.
Response: MET

Prompt: Given "O=C(NCc1cccnc1OCC(F)(F)F)c1cncc(-c2ccc(Cl)cc2)c1" , state whether its Growth Rate is at least 0.7.
Response: MET

Prompt: Given "CC(C)(O)c1cn(-c2ccc(-c3cccc(S(C)(=O)=O)c3)cc2)c(C(C)(C)c2ccccc2Cl)n1" , state whether its Growth Rate is at least 0.7.
Response: MET

Prompt: Given "O=C(Cc1ccccc1)Nc1nnc(N2C[C@H]3C[C@@H]2CN3c2cccnn2)s1" , state whether its Growth Rate is at least 0.7.
Response: MET

Prompt: Given O=C(CNC(=O)c1ccc(-c2ccccc2)cc1)NC1CCCc2ccccc21 (stereo not drawn) , state whether its Growth Rate is at least 0.7.
Response: NOT MET

Prompt: Given "CC(C)n1cnc2c(Nc3cccc(Cl)c3)nc(N[C@H]3CCCC[C@@H]3N)nc21" , state whether its Growth Rate is at least 0.7.
Response: NOT MET

Prompt: Given "CN[C@@H](C)C(=O)N[C@H]1CN(C(=O)CC(C)C)CC[C@H]2CC[C@@H](C(=O)NC(c3ccccc3)c3ccccc3)N2C1=O" , state whether its Growth Rate is at least 0.7.
Response: MET

Prompt: Given "COc1ccccc1-c1cc(Nc2cccc(CS(N)(=O)=O)c2)ncn1" , state whether its Growth Rate is at least 0.7.
Response: NOT MET

----------
Catalogue of compounds with associated Growth Rate
# System: HEK-293T
# PROTOCOL SUMMARY: Incucyte cell viability with HEK293T; note: unitless GR value; below 1 slowed growth and below 0 cell loss
# Type: toxicity, cell-based
# RECORDED CONDITIONS: human, 18 h, 10 µM, compound concentration 10 uM, replicate number 1
# output: bare number, no unit

COMPOUND	Growth Rate
O=C(Nc1ccc(Oc2ccc(Cl)cc2)c(Cl)c1)c1cc(I)cc(I)c1O [RAFOXANIDE]	-0.55
Oc1cc2c(cc1O)CN(C(=S)NCCc1ccc(Cl)cc1)CCC2 [CAPSAZEPINE]	0.54
COc1ccc2c(O[C@@H]3C[C@H]4C(=O)N[C@]5(C(=O)NS(=O)(=O)C6(C)CC6)CC5/C=C\CCCCC[C@H](NC(=O)c5ccn(C)n5)C(=O)N4C3)cc(OC(C)C)nc2c1C (stereo partly specified)	0.9

Prompt: Please report Growth Rate with HEK-293T for item Nc1ncnc2c1c(I)cn2[C@@H]1O[C@H](CO)[C@@H](O)[C@H]1O [IODOTUBERCIDIN] .
Response: -0.21

Prompt: Please report Growth Rate with HEK-293T for item "CCN(C)S(=O)(=O)Nc1cccc(-c2ccc3c(NC(=O)C4CC4)n[nH]c3c2)c1" .
Response: -0.03

Prompt: Please report Growth Rate with HEK-293T for item CC/C(=C(\c1ccccc1)c1ccc(OCCN(C)C)cc1)c1ccccc1.O=C(O)CC(O)(CC(=O)O)C(=O)O [TAMOXIFEN CITRATE] .
Response: 0.48

Prompt: Please report Growth Rate with HEK-293T for item "Cc1c(C(=O)Nc2cccc(C(F)(F)F)c2)cc(-c2ccccc2)n1CCCN1CCOCC1.Cl" .
Response: 0.32

Prompt: Please report Growth Rate with HEK-293T for item "Cc1cccc(CC(=O)N2CCc3c2ccc(-c2cn(C)c4ncnc(N)c24)c3F)n1" .
Response: 0.4

----------
Catalogue of compounds with associated Growth Rate
# Test system: Fibroblast
# PROTOCOL SUMMARY: Incucyte cell viability with human fibroblast; note: unitless GR value; below 1 slowed growth and below 0 cell loss
# Type: toxicity, cell-based
# RECORDED CONDITIONS: 18 h, 10 µM, compound concentration 10 uM, replicate number 2
# output: bare number, no unit

COMPOUND	Growth Rate
CN(C)C/C=C/C(=O)Nc1cccc(S(=O)(=O)N2CCC(NC(=O)c3n[nH]cc3NC(=O)c3c(Cl)cc(Cl)cc3Cl)CC2)c1	0.09
CCc1ccc(-c2ncn(CC3(F)CCN(C)CC3)c2-c2ccnc3[nH]ccc23)nc1	0.97
CC(C)(C)c1cc(NC(=O)c2csc(Nc3ccccn3)n2)no1	0.35
CC(C)(O)[C@H]1CC[C@H](Nc2ccc3ncc(-c4cccc(C(F)(F)F)c4)n3n2)CC1 [NUVISERTIB]	-0.6

Next compound, Growth Rate to be filled in.
Prompt: # return recorded Growth Rate for input "COCCN1CCN(CCn2ccc(Nc3ncc4c(n3)-c3c(nn(C)c3-c3ccccc3)C[C@H]4C)n2)CC1"
Response: 0.31

----------
# System: Fibroblast
# PROTOCOL SUMMARY: Incucyte cell viability with human fibroblast; note: unitless GR value; below 1 slowed growth and below 0 cell loss
# Type: toxicity, cell-based
# RECORDED CONDITIONS: 24 h, 10 µM, compound concentration 10 uM, replicate number 2
MEASUREMENT LABEL: Growth Rate
# output: bare number, no unit

MOLECULE	Growth Rate
C[C@@H]1CC[C@@]2(OC1)O[C@H]1[C@@H](O)[C@H]3[C@@H]4CC[C@H]5C[C@@H](O[C@@H]6O[C@H](CO)[C@H](O[C@@H]7O[C@H](CO)C(O)[C@H](O[C@@H]8OC[C@@H](O)[C@H](O)[C@H]8O)[C@H]7O[C@@H]7O[C@H](CO)[C@H](O)[C@H](O[C@@H]8O[C@H](CO)[C@@H](O)[C@H](O)[C@H]8O)[C@H]7O)[C@H](O)[C@H]6O)[C@H](O)C[C@]5(C)[C@H]4CC[C@]3(C)[C@H]1[C@@H]2C (stereo partly specified)	0.85

Prompt: # return recorded Growth Rate for input "CC(C)CC(=O)Nc1cncc(-c2ccc3[nH]nc(-c4nc5c(-c6cccc(F)c6)cncc5[nH]4)c3c2)c1"
Response: -0.13

Prompt: # return recorded Growth Rate for input CCn1c(-c2nc3cc(C(=O)N4CCCC(N)C4)ccc3n2C)cc2ccccc21.Cl (stereo unspecified)
Response: 0.77

Prompt: # return recorded Growth Rate for input "O=C(NC1CCNCC1)c1n[nH]cc1NC(=O)c1c(Cl)cccc1Cl"
Response: -0.17

Prompt: # return recorded Growth Rate for input "Cc1cc(CN)cc(C)c1-c1ncn(C)c1-c1cncn1C.Cl"
Response: 0.86

Prompt: # return recorded Growth Rate for input Cc1nnc2n1-c1sc3c(c1C(c1ccccc1Cl)=NC2)CC(C(=O)N1CCOCC1)C3 (stereo unspecified)
Response: 0.92

----------
# Test system: U2OS
# PROTOCOL SUMMARY: Incucyte cell viability with U2OS; note: unitless GR value; below 1 slowed growth and below 0 cell loss
# Format: toxicity, cell-based
# RECORDED CONDITIONS: human, 0 h, 10 µM, compound concentration 10 uM, replicate number 1
Catalogue of compounds with associated Growth Rate

Please review the entries below; each comes with its answer.
COMPOUND	Growth Rate
O=S(=O)(Nc1ccc(C(O)(C(F)(F)F)C(F)(F)F)cc1)c1cccs1	-0.75
Cl.O=C1c2cccc3c2[C@H](CCC3)CN1[C@@H]1CN2CCC1CC2 [PALONOSETRON HYDROCHLORIDE]	-0.52

Prompt: # return recorded Growth Rate for input C/C=C1\C(=O)CC2C3CCC4=CC(=O)CC[C@]4(C)C3CC[C@]12C (stereo partly drawn)
Response: 0.15

Prompt: # return recorded Growth Rate for input "CCOC(=O)c1c(/C(C#N)=C\N)c2ccc(Cl)c(Cl)c2n1C"
Response: -0.98

Prompt: # return recorded Growth Rate for input "COCCc1ccc(-c2c(C)nc3c(N4CCOCC4)ccnn23)cn1"
Response: -0.6
